Reference source for all entries: PubChem BioAssay AID1159506

Each record here notes measured seed-corrected z-score.
assay: Identification of proteins required for the processing of the EWS-FLI1 nascent transcript; settings: TC32 Ewing sarcoma NR0B1-luc vs CMV-luc (EWS-FLI1 target promoter against control promoter), 48 h; screened at 20 nM (by protocol);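 further: robust z of luciferase light less the median z of siRNAs with the same seed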
Over roughly 59,000 sequences, the read-out has its median near -0.00055; the lowest 2% begin near -2. The entries come from a sample that favours the lowest values as a whole.
Experimental Endpoint: seed-corrected z-score

1) UUCCUGACGAGGUACACUG against GAS2L2; 0.821
2) UGACUAAUAAGAAUGCCCG against SLC2A2; -0.863
3) UGAUCUCCAAUCACAUGCC against ARFGEF2; -0.117
4) UUCGUUGCAAAUCCCAUGC against SPTLC2; -3.22
5) AAUAGUUAUUUUGUUGAGC against C6orf52; -0.622
6) UAUCUUUCUCAGGAGUUUG against OR2T10; -0.23
7) AAAGGAUCUCUCUGUAUUU against SNTN; 1.99
8) UGAAGUUCAGGUUCGUAAC against TBPL1; -2.64
9) UUGGGUUGGAAGUCCACUG against SF3A1; -2.15
10) UUGACCAUCAAGUAUUAGC against WDR47; -10.6
